run_description: Determination of binding constants of inhibitor in Tris buffer at pH 8
Format: biochemical
measurement_context: Ki of variant with the mutation relative to variant without the mutation
endpoint_label: Inhibitor-binding relative Kimutation, inhibitor binding in Tris buffer pH 8
The answer should be written as a number, with no unit following it.

Here is how some molecules turned out for Inhibitor-binding relative Kimutation, inhibitor binding in Tris buffer pH 8.
What the record says about K146A, S173P, S175P, F180Y: TY145 protease (SEQ ID NO 3) variant with these substitutions (protein, listed as Bacillus sp.) AVPSTQTPWGIKSIYNDQSITKTTGGSGIKVAVLDTGVYTSHLDLAGSAEQCKDFTQSNPLVDGSCTDRQGHGTHVAGTVLAHGGSNGQGVYGVAPQAKLWAYKVLGDNGSGYSDDIAAAIRHVADEASRTGSKVVINMSLGSSAADSLIASAVDYAYGKGVLIVAAAGNSGPGPNTIGYPGGLVNAVAVAALENVQQNGTYRVADFSSRGNPATAGDYIIQERDIEVSAPGASVESTWYTGGYNTISGTSMATPHVAGLAAKIWSANTSLSHSQLRTELQNRAKVYDIKGGIGAGTGDDYASGFGYPRVK : Inhibitor-binding relative Kimutation, inhibitor binding in Tris buffer pH 8 is 0.29

Record K146F, S173P, S175P, F180Y: TY145 protease (SEQ ID NO 3) variant with these substitutions (protein, listed as Bacillus sp.) AVPSTQTPWGIKSIYNDQSITKTTGGSGIKVAVLDTGVYTSHLDLAGSAEQCKDFTQSNPLVDGSCTDRQGHGTHVAGTVLAHGGSNGQGVYGVAPQAKLWAYKVLGDNGSGYSDDIAAAIRHVADEASRTGSKVVINMSLGSSAFDSLIASAVDYAYGKGVLIVAAAGNSGPGPNTIGYPGGLVNAVAVAALENVQQNGTYRVADFSSRGNPATAGDYIIQERDIEVSAPGASVESTWYTGGYNTISGTSMATPHVAGLAAKIWSANTSLSHSQLRTELQNRAKVYDIKGGIGAGTGDDYASGFGYPRVK , field Inhibitor-binding relative Kimutation, inhibitor binding in Tris buffer pH 8: 0.19

So for K146N, S173P, S175P, F180Y: TY145 protease (SEQ ID NO 3) variant with these substitutions (protein, listed as Bacillus sp.) AVPSTQTPWGIKSIYNDQSITKTTGGSGIKVAVLDTGVYTSHLDLAGSAEQCKDFTQSNPLVDGSCTDRQGHGTHVAGTVLAHGGSNGQGVYGVAPQAKLWAYKVLGDNGSGYSDDIAAAIRHVADEASRTGSKVVINMSLGSSANDSLIASAVDYAYGKGVLIVAAAGNSGPGPNTIGYPGGLVNAVAVAALENVQQNGTYRVADFSSRGNPATAGDYIIQERDIEVSAPGASVESTWYTGGYNTISGTSMATPHVAGLAAKIWSANTSLSHSQLRTELQNRAKVYDIKGGIGAGTGDDYASGFGYPRVK , the logged Inhibitor-binding relative Kimutation, inhibitor binding in Tris buffer pH 8 turned out to be 0.91

Continue with the next molecule.
Per the record, I150A, S173P, S175P, F180Y: TY145 protease (SEQ ID NO 3) variant with these substitutions (protein, listed as Bacillus sp.) AVPSTQTPWGIKSIYNDQSITKTTGGSGIKVAVLDTGVYTSHLDLAGSAEQCKDFTQSNPLVDGSCTDRQGHGTHVAGTVLAHGGSNGQGVYGVAPQAKLWAYKVLGDNGSGYSDDIAAAIRHVADEASRTGSKVVINMSLGSSAKDSLAASAVDYAYGKGVLIVAAAGNSGPGPNTIGYPGGLVNAVAVAALENVQQNGTYRVADFSSRGNPATAGDYIIQERDIEVSAPGASVESTWYTGGYNTISGTSMATPHVAGLAAKIWSANTSLSHSQLRTELQNRAKVYDIKGGIGAGTGDDYASGFGYPRVK has Inhibitor-binding relative Kimutation, inhibitor binding in Tris buffer pH 8 of 0.40
